Reported values of viability, T/C for individual entries
# Tested on: 885724-159-R-J1-PDC complex spheroid viability
# assay.explanation: Anticancer human tumor 885724-159-R-J1-PDC patient-derived pancreatic adenocarcinoma cell line growth inhibition [POLQ]
# cond: second compound 0.0316 µM; first compound 1 µM; hits give low values
State just the number; it will be interpreted in %.

compound	viability, T/C, %
CCc1cc2c(N3CCc4c(cc(Cn5ccnc5)cc4-c4cn(C)nc4C(F)(F)F)C3=O)cc(C)nc2c(OC)n1 + Nc1ccc(C#CCN(C(=O)Cc2ncc(C(F)(F)F)cc2C(F)(F)F)c2ccc(F)cc2)nn1	79.3
C=CC(=O)N1CCN(c2nc(=O)n(-c3c(C)ccnc3C(C)C)c3nc(-c4c(O)cccc4F)c(F)cc23)C(C)C1 (stereo not drawn) + Cc1cccc(N(C)C(=O)C2C(O)CCN2c2nc(C)cc(C(F)(F)F)c2C#N)c1	97.8

Ask: Find viability, T/C (885724-159-R-J1-PDC complex spheroid viability) for the entry COc1cccc2c1C(=O)c1c(O)c3c(c(O)c1C2=O)CC(O)(C(=O)CO)CC3OC1CC(N)C(O)C(C)O1 (stereo not drawn) + Nc1ccc(C#CCN(C(=O)Cc2ncc(C(F)(F)F)cc2C(F)(F)F)c2ccc(F)cc2)nn1
Reply: 13.8

---

# Test system: 885724-159-R-J1-PDC complex spheroid viability
# assay.explanation: Anticancer human tumor 885724-159-R-J1-PDC cell line growth inhibition [POLQ];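 further: spheroids exposed to compounds for 7 days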
# cond: second compound 3.16 µM; first compound 0.0316 µM; hits give low values
Lab note: compare viability, T/C with 90%, writing yes if less and no if equal or more.

These recorded examples may help you get a feel for the data.
compound	class.label
CC1COCCN1c1cc(C2(S(C)(=N)=O)CC2)nc(-c2ccnc3[nH]ccc23)n1 (stereo not given) + Nc1ccc(C#CCN(C(=O)Cc2ncc(C(F)(F)F)cc2C(F)(F)F)c2ccc(F)cc2)nn1	no
CC1COCCN1c1cc(C2(O)CC3CCC(C2)O3)c2cnn(-c3ccn[nH]3)c2n1 (stereo not given) + Cc1cccc(N(C)C(=O)C2C(O)CCN2c2nc(C)cc(C(F)(F)F)c2C#N)c1	yes
CNCc1ccc(-c2[nH]c3cc(F)cc4c3c2CCNC4=O)cc1 + COC1C(OC(N)=O)C(O)C(Oc2ccc3c(O)c(NC(=O)c4ccc(O)c(CC=C(C)C)c4)c(=O)oc3c2C)OC1(C)C	no

Query compound follows.
Ask: In plain terms, does C#Cc1c(F)ccc2cc(O)cc(-c3ncc4c(N5CC6CCC(C5)N6)nc(OCC56CCCN5CC(F)C6)nc4c3F)c12 (stereo not given) + Nc1ccc(C#CCN(C(=O)Cc2ncc(C(F)(F)F)cc2C(F)(F)F)c2ccc(F)cc2)nn1 come in under 90% for viability, T/C?
Reply: yes

---

# Tested on: 885724-159-R-J1-PDC complex spheroid viability
# assay.explanation: Anticancer human tumor 885724-159-R-J1-PDC cell line growth inhibition [POLQ]; active = viability on the fitted dose curve at most 10% of control; inactive = the rest;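 further: spheroids exposed to compounds for 7 days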
# cond: second compound 3.16 µM; first compound 10 µM
# Procedure: Multicellular complex tumor spheroid response to Polymerase (POL) inhibitors (novobiocin, ART-558, RP6685) in combination with a variety of drugs and investigational agents in selected tumor cell lines The POL inhibitors (novobiocin, ART-558, and RP6685) were evaluated both individually and in combination with standard of care and investigational anticancer small molecules within a complex spheroid model of solid tumors. . […]
Please state which outcome applies, choosing from True for active, False for inactive

molecule	class.label
O=c1[nH]cc(F)c(=O)[nH]1 + Nc1ccc(C#CCN(C(=O)Cc2ncc(C(F)(F)F)cc2C(F)(F)F)c2ccc(F)cc2)nn1	False

Ask: What did this assay record as the result for CCc1cc2c(N3CCc4c(cc(Cn5ccnc5)cc4-c4cn(C)nc4C(F)(F)F)C3=O)cc(C)nc2c(OC)n1 + Cc1cccc(N(C)C(=O)C2C(O)CCN2c2nc(C)cc(C(F)(F)F)c2C#N)c1 ?
Reply: False

Ask: Check the results log: what was the call for O=c1[nH]cc(F)c(=O)[nH]1 + Cc1cccc(N(C)C(=O)C2C(O)CCN2c2nc(C)cc(C(F)(F)F)c2C#N)c1 ?
Reply: False

Ask: Could you kindly confirm the outcome this assay logged for COc1cc(C2c3cc4c(cc3C(OC3OC5COC(C)OC5C(O)C3O)C3COC(=O)C23)OCO4)cc(OC)c1O (stereo not given) + COC1C(OC(N)=O)C(O)C(Oc2ccc3c(O)c(NC(=O)c4ccc(O)c(CC=C(C)C)c4)c(=O)oc3c2C)OC1(C)C ?
Reply: False

Ask: Any idea what this test logged for COc1cccc2c1C(=O)c1c(O)c3c(c(O)c1C2=O)CC(O)(C(=O)CO)CC3OC1CC(N)C(O)C(C)O1 (stereo not given) + Nc1ccc(C#CCN(C(=O)Cc2ncc(C(F)(F)F)cc2C(F)(F)F)c2ccc(F)cc2)nn1 ?
Reply: True
